Test: CPHEA_Stoker_NIS_Cytotoxicity: Cytotoxicity Assessment for CPHEA's Radioactive Iodide Uptake (RAIU) Assay for Sodium/Iodide Symporter (NIS) Inhibition, Stoker and Laws Labs (AID 2283897);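 on AC50: active means loss of ATP signal versus DMSO meaning cytotoxicity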
Procedure: CPHEA_Stoker_NIS is a cell-based, single-readout assay that uses hNIS-HEK293T-EPA, a novel human kidney cell line expressing human NIS, with measurements taken at 2 hours after chemical dosing in a 96-well plate. […] A parallel cytoxicity assay (Cell Titer Glo, Promega) was also run in the same cell line.CPHEA_Stoker_NIS_Cytotoxicity is one of 2 assay components measured from the CPHEA_Stoker_NIS assay. […]
Activity calls are given as the source filed them. How the source made its calls: active means hit-call score of the fitted dose curve at least 0.9, where 1 is the maximum; inconclusive means response in the unintended direction; inactive means score below 0.9.
reported_property: AC50

>>> reported("C/C=C/C=C/CCCCCCCO")
"inactive"
>>> reported("O=C(O)c1cc(O)c2ccccc2c1O")
"inactive"
>>> reported("Oc1ccc(-c2ccccc2)c(Cl)c1")
"inactive"
>>> reported("O=C(OCCc1ccccc1)c1ccccc1")
"inactive"
>>> reported("O=C(Nc1ccccc1)c1cc(Cl)ccc1O")
"inactive"
>>> reported("O=C(OCc1ccccc1)c1ccc(O)cc1")
"inactive"
>>> reported("c1ccc(Nc2cccc3ccccc23)cc1")
"inactive"
>>> reported("CO[Si](C)(C)OC")
"inactive"
>>> reported("CCCCC/C=C\\C/C=C\\CCCCCCCC(=O)O")
"80.1 µM (active)"
>>> reported("O=C(Oc1ccccc1)c1ccccc1O")
"inactive"
>>> reported("CN(C)c1ccc2nc3ccc(=[N+](C)C)cc-3sc2c1")
"50 µM (active)"
>>> reported("CC(C)c1ccc(O)c(C(C)C)c1")
"inactive"

###

Assay: ATG_NFI_CIS: Attagene CIS-FACTORIAL HepG2 Assay for human Nuclear Factor I (NFI) (AID 2282989)
Conditions: HepG2 cis-regulatory reporter, NFI response element transcription; actives raise or lower the signal
Active and inactive are the calls of the source. How the source made its calls: active means hit-call score of the fitted dose curve at least 0.9, where 1 is the maximum; inactive means score below 0.9.
Classes used: active, inactive

>>> label_value("C=C[Si](OCCOC)(OCCOC)OCCOC")
"inactive"
>>> label_value("CC1(C)[C@@H]2CC[C@@]1(C)C(=O)C2")
"inactive"
>>> label_value("CCOC(=O)[C@H](O)[C@@H](O)C(=O)OCC")
"inactive"
>>> label_value("CCOC(=O)/C=C\\C(=O)OCC")
"inactive"
>>> label_value("CC/C=C\\C/C=C\\C/C=C\\CCCCCCCC(=O)OC")
"inactive"
>>> label_value("CC(C)CCCCCOC(=O)CS")
"inactive"
>>> label_value("CCCCCC1=CCCC1=O")
"inactive"
>>> label_value("CCCCCCCC(=O)OCC")
"inactive"
>>> label_value("CCCCCCCCCCCCC")
"inactive"
>>> label_value("CC(=O)OCCc1ccccc1")
"inactive"
>>> label_value("CCCCOC(=O)CCC(C)=O")
"inactive"
>>> label_value("Nc1ccc(C(=O)OCCCOC(=O)c2ccc(N)cc2)cc1")
"inactive"
>>> label_value("CC1=CC(C)C(C=O)CC1 (configuration not stated)")
"inactive"
>>> label_value("C=CC(C)(O)CC/C=C(\\C)CC (configuration not stated)")
"inactive"
>>> label_value("NC(=O)Nc1ccccc1")
"inactive"
>>> label_value("O=C1CCCCC1C1CCCCC1 (configuration not stated)")
"inactive"
>>> label_value("CCc1cccc(CC)c1")
"inactive"
>>> label_value("CCOC(=O)CC(=O)c1ccccc1")
"inactive"
>>> label_value("COC(=O)c1ccc(C(=O)OC)c(C(=O)OC)c1")
"inactive"
>>> label_value("Fc1ccc(Br)cc1")
"inactive"
>>> label_value("CCCCCC[C@@H](O)C/C=C\\CCCCCCCC(=O)OCC(O)CO (some centres not stated)")
"inactive"
>>> label_value("CC1OC(=O)C(C)OC1=O (configuration not stated)")
"inactive"
>>> label_value("CN(C)Cc1cc(CN(C)C)c(O)c(CN(C)C)c1")
"inactive"
>>> label_value("c1ccc2cnccc2c1")
"inactive"
>>> label_value("C=CC(=O)OCCCCCCOC(=O)C=C")
"inactive"
>>> label_value("CC(C)C(=O)OCCc1ccccc1")
"inactive"
>>> label_value("C=CC(=O)OCCCCCCCCCC")
"inactive"
>>> label_value("CN1CCN(C)CC1")
"inactive"
>>> label_value("O=C(Cl)c1ccc(C(=O)Cl)cc1")
"inactive"
>>> label_value("CCCCCCOC(=O)CCCCC(=O)OCCCCCC")
"inactive"
>>> label_value("CCCCC/C=C\\C/C=C\\CCCCCCCC(=O)O")
"active"
>>> label_value("COc1ccc(C(=O)c2ccccc2)c(O)c1")
"inactive"
>>> label_value("C=C(C)C(=O)OCCCCCCCCCCCC")
"inactive"
>>> label_value("C[N+](C)(C)CCCNS(=O)(=O)C(F)(F)C(F)(F)C(F)(F)C(F)(F)C(F)(F)C(F)(F)C(F)(F)C(F)(F)F")
"inactive"
>>> label_value("Cc1c[nH]c(=O)[nH]c1=O")
"inactive"
>>> label_value("O=C(Cl)c1c(Cl)c(Cl)c(C(=O)Cl)c(Cl)c1Cl")
"inactive"
>>> label_value("CC(=O)OCC=C(C)C")
"inactive"
>>> label_value("CCC(C)c1ccccc1 (configuration not stated)")
"inactive"
>>> label_value("CCCCCCCCCCCCc1ccc(O)cc1")
"inactive"
>>> label_value("CC1=CC=C(C(C)C)CC1")
"inactive"
>>> label_value("CCCSSCCC")
"inactive"
>>> label_value("CC(=O)c1ccccc1O")
"inactive"
>>> label_value("CC1(C)CC(O)CC(C)(C)N1[O]")
"inactive"
>>> label_value("COC(=O)c1ccccc1C")
"inactive"
>>> label_value("OCCCc1ccccc1")
"inactive"
>>> label_value("C=CCCCCCCCCC=O")
"inactive"
>>> label_value("COc1ccc(-c2coc3cc(O)cc(O)c3c2=O)cc1")
"inactive"
>>> label_value("CC1CCC(=O)C1=O (configuration not stated)")
"inactive"
>>> label_value("C=CC(=O)OCCCCCCCC(C)C")
"inactive"
>>> label_value("CCN1CN(CC)CN(CC)C1")
"active"
>>> label_value("O=c1c(O)c(-c2ccc(O)cc2O)oc2cc(O)cc(O)c12")
"inactive"
>>> label_value("CCCCCCCCCCCCCCCCCCOS(=O)(=O)O")
"active"
>>> label_value("CC(C)=CCCC(C)=CC#N")
"inactive"
>>> label_value("CCCCC1CCC(=O)O1 (configuration not stated)")
"inactive"
>>> label_value("CCCCC(CC)COC(=O)/C=C/c1ccc(OC)cc1 (configuration not stated)")
"inactive"
>>> label_value("CCCC(C)C(=O)OCC (configuration not stated)")
"inactive"
>>> label_value("COC(Cc1ccccc1)OC")
"inactive"
>>> label_value("Oc1ccccc1Cc1ccccc1O")
"inactive"
>>> label_value("O=C1CCCN1C1CCCCC1")
"inactive"
>>> label_value("C=C[C@@]1(C)CC(=O)[C@]2(O)[C@@]3(C)[C@@H](O)CCC(C)(C)[C@@H]3[C@H](O)[C@H](OC(C)=O)[C@@]2(C)O1")
"inactive"
>>> label_value("CCCCCCC=O")
"inactive"
>>> label_value("CC(C=O)c1ccccc1 (configuration not stated)")
"inactive"
